# tested-target: T1, human dimeric EGFR (EGFR.mFc) (human)
# T1 construct: Soluble dimeric EGFR construct
# experimental-details: SPR 37C, mAb captured by anti-human Fc, EGFR.mFc analyte
Kindly state kon for each of the entries shown.
Quick note: give the figure in M⁻¹ s⁻¹, leave out the unit.

(Q) So what's the measured kon for this one? H1H171P (antibody, human IgG1, V domains shown, Human IgG1 Fc (H1H)) VH: QVQLVESGGGVVQPGRSLRLSCAASGFTFSIYGMNWVRQGPGKGLDWVAVISDDGSNKDYVDSVRGRFTISRDNSKNTLYLQMNSLSAEDTAVYYCAKDRITGTHYYGMDVWGQGTTVTVSS VL: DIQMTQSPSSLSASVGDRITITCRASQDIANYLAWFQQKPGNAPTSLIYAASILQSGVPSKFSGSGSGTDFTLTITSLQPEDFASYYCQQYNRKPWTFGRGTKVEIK
(A) 339000

(Q) So what's the measured kon for this one? H1H144P (antibody, human IgG1, V domains shown, Human IgG1 Fc (H1H)) VH: QVQLQESGPGLVMPSQTLSLTCTVSGGSINSGDYYWNWIRQHPGKGLEWIGYIYYSEISYHNPSLKSRVTTSIDTSTNQFSLKLSSVTAADTAVYYCARDRVELRAFDIWGQGTMVTVSS VL: DIQMTQSPSSLSASVGDRVTITCQASQDISNYLNWYQQKPGKAPKLLIYDASNLETGVPSRFSGSGSGTDFTFTISSLQPEDIATYYCQHYDSLPLTFGQGTRLEIK
(A) 894000

(Q) So what's the measured kon for this one? H1H086N (antibody, human IgG1, V domains shown, Tested in human IgG1 Fc format (H1H); also called H1M086N) VH: EVQLVESGGGLVQPGRSLRLSCAASGFTFDDYAMHWVRQAPGKGLEWVSGINWNSDKIAYADSVKGRFTISRDNAENSLFLQMNSLRPEDTALYYCVKRGDFWTDYYDYWGQGTLVTVSS VL: DIVMTQSPLSLPVTPGEPASISCRSSQSLLHSNGYNYLDWYLQKPGQSPHLLIYLVSTRASGVPDRFSGSGSGTDFTLKISRVEAEDVGVYYCMQALQTPWTFGQGTKVEIK
(A) 1.9e+06

(Q) So what's the measured kon for this one? H1H153P (antibody, human IgG1, V domains shown, Human IgG1 Fc (H1H)) VH: QVQLVESGGGVVQPGKSLRLSCAASGFTFSIYGMNWVRQAPGKGLDWVAVISDDGSNKDYVDSVRGRFTISRDNSKNTLYLQMNSLSAEDTAVYYCAKDRITGTHYYGLDVWGQGTTVTVSS VL: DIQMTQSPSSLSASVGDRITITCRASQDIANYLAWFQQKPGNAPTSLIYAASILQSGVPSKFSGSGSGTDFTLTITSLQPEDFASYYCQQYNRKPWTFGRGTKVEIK
(A) 234000

(Q) So what's the measured kon for this one? H1H159P (antibody, human IgG1, V domains shown, Human IgG1 Fc (H1H)) VH: EVQLVESGGGLVQPGGSLRLSCAASRFTFTNYWMSWVRQAPGKGLEWVAKIKQDGSEKYYLDSVKDRFTISRDNAKNSLYLQMNSLRAEDTAVYYCASSSSWYDYYYGMDVWGHGTTVTVSS VL: EIVLTQSPDFQSVTPKEKVTITCRASQSIGTNLHWYQQRPDQSPKLLIKFASQSFSGVPSRFSGSGSGTDFTLTINSLEAEDAATYYCHQTNFLPHTFGGGTKVEIKR
(A) 1.64e+06

(Q) So what's the measured kon for this one? H1H089N (antibody, human IgG1, V domains shown, Tested in human IgG1 Fc format (H1H); also called H1M089N) VH: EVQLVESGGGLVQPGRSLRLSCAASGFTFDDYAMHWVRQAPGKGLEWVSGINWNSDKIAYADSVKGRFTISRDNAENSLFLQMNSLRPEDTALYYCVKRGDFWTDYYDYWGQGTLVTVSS VL: DIVMTQSPLSLPVTPGEPASISCRSSQSLLHSNGHNYLDWYLQKPGQSPHLLIYLVSNRASGVPDRFSGSGSGTDFTLKISRVEAEDVGVYYCIQALQTPWTFGQGTKVEIK
(A) 1.49e+06

Source: patent US20180036405A1
